As a worked illustration, we turn to MIC data collected for Malassezia furfur IFO-0656.
Express the result in µg/mL but write the number alone.

>>> df
                                   compound  property  value_measured
0  CCCCCN(C)c1ccccc1C(=NN(C)C)n1ccnc1 [Compound No. 87]       MIC            0.78
1  CCCCOc1ccccc1C(=NN(C)C)n1ccnc1 [Compound No. 23]       MIC            0.39
2  CCSc1ccccc1C(=NN(C)C)n1ccnc1 [Compound No. 80]       MIC            12.5
3  COc1ccc(OCCOc2ccccc2C(=NN(C)C)n2ccnc2)cc1 [Compound No. 69]       MIC            1.56
4  CN(C)N=C(c1ccccc1OCc1ccccc1)n1ccnc1 [Compound No. 34]       MIC            0.62

Exercise: Print Malassezia furfur IFO-0656 MIC for CN(C)N=C(c1ccccc1OC(F)(F)C(F)F)n1ccnc1 [Compound No. 33] .
Solution: 6.25

Exercise: Print Malassezia furfur IFO-0656 MIC for CCCCCOc1ccccc1C(=NN1CCCCC1)n1ccnc1 [Compound No. 173] .
Solution: 0.39

All figures here come from patent US8022072B2.
